Cited source for all entries: PubChem BioAssay AID504383

Target: Troponin I, cardiac muscle (Homo sapiens) + Troponin T, cardiac muscle (Homo sapiens) + Troponin C, slow skeletal and cardiac muscles (Homo sapiens) (UniProt P19429+P45379+P63316)
Experiment: cardiac RTF calcium sensitivity activators, confirmation, biochemical, IANBD-TnC fluorescence, triplicate (AID 504383);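 further: 0% = DMSO at 0.472 mM calcium and 100% = DMSO at 2.9 mM calcium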
Details: IANBD-labeled cardiac RTF, Ca2+ sensitivity fluorescence; at 7.2 µM; active compounds read high; scaled from EC20 to saturating calcium; tested at EC20 calcium, 0.472 mM
Hit rate of the full screen: of about 2,500 compounds, about 1,200 (48%) were called active. So high a share suggests a set chosen from earlier hits. The list shows a part of the results.
Output yes (1) for activation not less than 10%; output no (0) otherwise.

>  <compound>
CCn1cc([N+](=O)[O-])c(C(=O)Nc2ccn(Cc3ccccc3)n2)n1

>  <assigned-category>
yes (1)

$$$$
>  <compound>
COc1cc(C2C3CN(C)CC=C3C(C#N)=C(N)C2(C#N)C#N)ccc1OC(C)C (configuration not stated)

>  <assigned-category>
yes (1)

$$$$
>  <compound>
CN1C=CC2=C(C#N)C(N)C(C#N)(C#N)[C@H](c3ccccc3)[C@H]2C1 (some centres not stated)

>  <assigned-category>
no (0)

$$$$
>  <compound>
Cc1ccc(C)c(C2=NNC(=O)CC2)c1

>  <assigned-category>
no (0)

$$$$
>  <compound>
CCc1cc(C(=O)Nc2ccc(OC)nc2)sc1C

>  <assigned-category>
no (0)

$$$$

Q: Item `COc1ccccc1C(=O)NN(C)C1=NS(=O)(=O)c2ccccc21` with activation of 10% or above?
A: no (0)

Q: Item: `CN1CC=C2C(C#N)=C(N)C(C#N)(C#N)[C@H](c3cccs3)[C@H]2C1`
A: yes (1)

Q: Can you check O=C(CCC1CCCN(C(=O)c2ccncc2)C1)NCc1ccc(F)c(F)c1 (configuration not stated) next?
A: no (0)

Q: Could you do the same for `Cc1cc(C=O)c(C)n1-c1ccc(Oc2ccc([N+](=O)[O-])cn2)cc1` , please?
A: no (0)

Q: Quick one: CC(C)(C)OC(=O)N1CC=C2C(C#N)=C(N)C(C#N)(C#N)C(c3cccs3)C2C1 (configuration not stated)
A: no (0)
